Measured Fold Shift of EC50 values are reported for all entries that follow.
Target: PTHR1 receptor
Sequence (P25961 whole entry): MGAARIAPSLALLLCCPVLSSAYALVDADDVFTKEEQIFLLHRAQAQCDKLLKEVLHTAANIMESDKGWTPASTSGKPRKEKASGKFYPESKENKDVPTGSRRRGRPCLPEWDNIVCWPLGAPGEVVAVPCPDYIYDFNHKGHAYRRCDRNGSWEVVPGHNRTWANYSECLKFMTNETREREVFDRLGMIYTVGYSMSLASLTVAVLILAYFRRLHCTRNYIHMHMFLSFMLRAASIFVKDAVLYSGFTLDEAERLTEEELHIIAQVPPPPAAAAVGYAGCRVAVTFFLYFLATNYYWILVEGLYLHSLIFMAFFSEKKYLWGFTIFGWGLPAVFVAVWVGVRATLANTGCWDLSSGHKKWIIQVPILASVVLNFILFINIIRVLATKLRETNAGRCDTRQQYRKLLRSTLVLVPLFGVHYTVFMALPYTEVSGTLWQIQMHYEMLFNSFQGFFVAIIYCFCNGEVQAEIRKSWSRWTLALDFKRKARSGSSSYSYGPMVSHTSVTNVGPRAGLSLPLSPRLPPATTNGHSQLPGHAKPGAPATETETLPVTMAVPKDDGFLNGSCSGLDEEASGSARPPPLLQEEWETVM
* marks the point of attachment. Palmitoyl = CCCCCCCCCCCCCCCC(=O)*
I only need the number, in fold, no unit after it.

binder	obs value
Palmitoyl-SGRRLHSTRNYIHMH-NH2 (SMILES CCCCCCCCCCCCCCCC(=O)N[C@@H](CO)C(=O)NCC(=O)N[C@@H](CCCNC(=N)N)C(=O)N[C@@H](CCCNC(=N)N)C(=O)N[C@@H](CC(C)C)C(=O)N[C@@H](Cc1c[nH]cn1)C(=O)N[C@@H](CO)C(=O)N[C@H](C(=O)N[C@@H](CCCNC(=N)N)C(=O)N[C@@H](CC(N)=O)C(=O)N[C@@H](Cc1ccc(O)cc1)C(=O)N[C@H](C(=O)N[C@@H](Cc1c[nH]cn1)C(=O)N[C@@H](CCSC)C(=O)N[C@@H](Cc1c[nH]cn1)C(N)=O)[C@@H](C)CC)[C@@H](C)O) [Compound 17]	2.8

We next turn to a different binder, shown below.
Q: Fill blank: measured Fold Shift of EC50 of the binder Palmitoyl-NIVRVLATKLRE-NH2 (SMILES CCCCCCCCCCCCCCCC(=O)N[C@@H](CC(N)=O)C(=O)N[C@H](C(=O)N[C@H](C(=O)N[C@@H](CCCNC(=N)N)C(=O)N[C@H](C(=O)N[C@@H](CC(C)C)C(=O)N[C@@H](C)C(=O)N[C@H](C(=O)N[C@@H](CCCCN)C(=O)N[C@@H](CC(C)C)C(=O)N[C@@H](CCCNC(=N)N)C(=O)N[C@@H](CCC(=O)O)C(N)=O)[C@@H](C)O)C(C)C)C(C)C)[C@@H](C)CC) [Compound 55] is ____.
A: 0.6
